target_entity: Autotaxin (Homo sapiens)
measurement_description: Activity of human autotaxin in human […] cells assessed as effect on enzyme-mediated of FS3 hydrolysis at 0.1 uM
Type: cell-based
Set-up: scale not given: the % may be the effect or the level left

record_smiles	Activity
CCCCCCCCCCCCCCCCC(=O)OC[C@@H](O)COP(=O)([O-])OCC[N+](C)(C)C	109%
CCCCCCCCCCOC[C@@H](O)COP(=O)([O-])CCC[N+](C)(C)C	101%
CCCCCCCCCCCCCCOP(=O)([O-])NCC[N+](C)(C)C	89%
CCCCCCCCCCCCCCOP(=O)([O-])CCC[N+](C)(C)C	94%
CCCCCCCCCCCCCCCCCCC(=O)OC[C@@H](O)COP(=O)([O-])OCC[N+](C)(C)C	111%
